Assign LogP to each entry below.
- protocol-notes: Log P by HPLC on reversed phase columns (EEC directive 79/831 Annex V.A8)
- Format: physicochemical
- details: method marked [a]

Consider the worked cases shown below.
Challenge: Entry CCOC(=O)C(CC(C)C)NC(=O)c1sc(Cl)c(Cl)c1F (centres unmarked) : reported LogP = ?
Response given: 4.63^[a]

Challenge: For the compound shown here, COC(=O)C(NC(=O)c1sc(Br)c(Br)c1C(F)F)C1CC1 (centres unmarked) , give the reported LogP.
Response given: 3.37^[a]

Challenge: So what's the measured LogP for this one? CCOC(=O)C(NC(=O)c1sc(Cl)c(C#N)c1Br)C(C)C (centres unmarked)
Response given: 3.83^[a]

Challenge: Could you tell me which LogP is on file for "CCOC(=O)C1(NC(=O)c2sc(C#N)c(Cl)c2Br)CC1" ?
Response given: 2.76^[a]

---
Challenge: // returns reported LogP for input "COC(=O)CNC(=O)c1sc(Br)c(Br)c1C(F)(F)F"
Response given: 2.71^[a]
